Just for reference, ChEMBL document CHEMBL4033701 is where these values come from.

Each entry below carries its reported IC50.
system: SK-MEL-2; test: Cytotoxicity against human SK-MEL-2 cells after 72 hrs by SRB assay; assay type: functional, cell-based; conditions: SK-MEL-2, 72 h
Expressed in µM, but write only the number.

- CC(=O)O[C@@H](CC(C)C)C[C@]1(C)OC(=O)[C@]23CC[C@H]4C(=CC[C@H]5C(C)(C)[C@@H](O[C@@H]6OC[C@@H](O)[C@H](O)[C@H]6O[C@@H]6O[C@H](C)[C@@H](O)[C@H](O)[C@H]6O)CC[C@]45C)[C@]2(C)CC[C@@H]31: 2.7

Alright, here's another molecule for you.
IC50 for C=C(C)C[C@@H](C[C@]1(C)OC(=O)[C@]23CC[C@H]4C(=CC[C@H]5C(C)(C)[C@@H](O[C@@H]6OC[C@@H](O)[C@H](O)[C@H]6O[C@@H]6O[C@H](CO)[C@@H](O)[C@H](O)[C@H]6O)CC[C@]45C)[C@]2(C)CC[C@@H]31)OC(C)=O is 10.8
